Origin of values: PubChem BioAssay

# ASSAY SUMMARY: small-molecule microarray binders of probe aNog, primary screen, biochemical, biotinylated probe, 635/667 nm fluorescence (AID 1115);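 also: probe is biotinylated aNog protein used at 0.15 µg/mL for 1 h at 4 C; z-score combines 667 nm fluorescence of each spot with its signal to noise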
# EXPERIMENTAL CONTEXT: higher = more signal
If the reported composite z-score equals or exceeds -0.3, assign True. If not, assign False.

CC(CCN1CCCCc2nc(C)c(C)cc21)=NO[C@@H](C)c1cn([C@H](CO)Cc2ccccc2)nn1 | False

API: the following record is the query input.
## Input Can CC(C)(C)N1C(=O)[C@H]2[C@H]3[C@H](O)[C@H](O)CC(=O)[C@H]3CC[C@H]2C1=O be said to have composite z-score at or above -0.3?
## Output True

###

Parameter: composite z-score. Scope: all listed entries.
# ASSAY SUMMARY: small-molecule binders of probe aInhba, primary screen, biochemical, small-molecule microarray, 635/667 nm fluorescence (AID 1148);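 also: score merges 667nm spot fluorescence with signal-to-noise for antibody binding to printed compounds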
# EXPERIMENTAL CONTEXT: higher = more signal
Form: value (number only, do not type unit).

Example results:
CC(=O)OC[C@H]1OC(ON=CC[C@@H]2C=C[C@H](OC(C)=O)[C@@H](COC(C)=O)O2)[C@H](OC(C)=O)[C@@H](OC(C)=O)[C@@H]1OC(C)=O (stereo partly drawn) | -0.126
COC(=O)CC=C[C@@H](C)[C@@H](C=NO[C@@H](C)c1cn([C@H](CO)Cc2ccccc2)nn1)NS(=O)(=O)c1ccc(C)cc1 | 0.0928

Pending compound:
## Input State, in one line, measured composite z-score of COC(=O)CC=C[C@@H](C)[C@@H](C=NO[C@@H](C)c1cc(-c2c(C)cc(C)cc2C)no1)NS(=O)(=O)c1ccc(C)cc1
## Output -0.261

###

# ASSAY SUMMARY: P. aeruginosa biofilm formation inhibitors, primary screen, strain PAO1, LB-PBS medium, absorbance 600 nm (AID 1176); also: test concentration not given here
# EXPERIMENTAL CONTEXT: P. aeruginosa PAO1 growth/biofilm, A600, 12 h; higher = more signal
The source made the active and inactive calls. How the calls were made is not given here.
QUANTITY: z-score

Example results:
Cn1c(=O)n2n(c1=O)[C@H]1[C@H](O)[C@@H]3O[C@@H]3C(=NOCc3ccccc3)[C@H]1CC2 | -0.0242 (inactive)
CC(C)CON=C1[C@H]2CCn3c(=O)n(Cc4cc5c(cc4Cl)OCO5)c(=O)n3[C@H]2[C@H](O)[C@@H]2O[C@H]12 | -1.4 (inactive)
COC(=O)[C@@H]1CC[C@@H](C)[C@H](c2ccc(Br)cc2)N1 | 0.766 (inactive)

Pending molecule:
## Input State, in one line, measured z-score of C[C@@H]1C=CCC(=O)OC[C@H]2O[C@@H](C=C[C@@H]2O)[C@H](C)C=CCC(=O)OC1
## Output 0.565 (inactive)

###

Parameter: z-score. Scope: all listed entries.
# ASSAY SUMMARY: PSAC antagonists in infected red cells, primary screen, cell-based, P. falciparum Indochina, OD700, 18 h (AID 1157)
# EXPERIMENTAL CONTEXT: P. falciparum Indochina infected erythrocytes, osmotic lysis OD700, 18 h; higher = more signal, called active from +8 up or from −8 down
Form: value (number only, do not type unit).

Example results:
COC(=O)CC=C[C@@H](C)[C@@H](C=NO[C@H](C)c1cn([C@H](CO)Cc2ccccc2)nn1)NS(=O)(=O)c1ccc(C)cc1 | 0.22
CC(C)=CCCC(C)=CCON=C1C[C@@H](O)[C@@H](O)[C@@H]2[C@@H]3C(=O)N(C[C@@H]4CCCO4)C(=O)[C@@H]3CC[C@H]12 | 0.55

## Input State, in one line, measured z-score of CC(=O)OC[C@H]1O[C@H](CCON=C2[C@H]3CCn4c(=O)n(-c5ccccc5)c(=O)n4[C@H]3[C@H](O)[C@@H]3O[C@H]23)C=C[C@@H]1OC(C)=O
## Output 0.269

## Input State, in one line, measured z-score of C#CCCCON=C1C[C@@H](O)[C@@H](O)[C@@H]2[C@@H]3C(=O)N(C(C)(C)C)C(=O)[C@@H]3CC[C@@H]12
## Output 0.305

## Input State, in one line, measured z-score of CO[C@@H]1C=CCC(=O)N[C@@H](C)C(=O)OC[C@@H](OC)[C@H](C)CCCC(=O)OC[C@H]1C
## Output -2.43

## Input State, in one line, measured z-score of CCOC(=O)[C@H](CC(C)C)NC(=O)CCC1CC(OC(=O)NCc2cccc3ccccc23)CC2(CCCC(COC(=O)NCCOc3ccccc3)O2)O1 (some centres undefined)
## Output -0.391

## Input State, in one line, measured z-score of CCCCC#C[C@@H]1C=C[C@H](Oc2ccc(C(=O)OC)cc2)[C@@H](COC(=O)OCC)O1
## Output 0.0033

## Input State, in one line, measured z-score of CO[C@H](C1CCCCC1)[C@H](C)C=CCC(=O)OCCCc1ccccc1
## Output 0.22

## Input State, in one line, measured z-score of CC(C)(C)N1C(=O)[C@H]2[C@H]3[C@H](O)[C@H](O)CC(=NO[C@@H]4O[C@H](CO)[C@@H](O)[C@H](O)[C@H]4O)[C@H]3CC[C@H]2C1=O
## Output 1.24

## Input State, in one line, measured z-score of CCOC(=O)[C@H](Cc1ccccc1)NC(=O)CCC1CC(OC(=O)NCCc2ccc(F)cc2)CC2(CCCC(COC(=O)NCC3CCCCC3)O2)O1 (some centres undefined)
## Output 0.416

## Input State, in one line, measured z-score of CCOC(=O)[C@H](Cc1ccccc1)NC(=O)CCC1CC(OC(=O)NCCc2ccc(F)cc2)CC2(CCCC(COC(=O)NCCOC)O2)O1 (some centres undefined)
## Output 0.737

## Input State, in one line, measured z-score of COC(=O)CC=C[C@@H](C)[C@@H](C=NOC[C@@H](O)[C@H]1O[C@@H]2OC(C)(C)O[C@@H]2[C@H]1O)NS(=O)(=O)c1ccc(C)cc1
## Output 0.0967

## Input State, in one line, measured z-score of O=C1C=C[C@@H](O)[C@@H]2[C@@H]3C(=O)N(c4ccc(F)cc4F)C(=O)[C@@H]3CC[C@@H]12
## Output -1.9

## Input State, in one line, measured z-score of CC(C)C[C@H](NC(=O)CCC1CC(OC(=O)NCc2cccc3ccccc23)CC2(CCCC(COC(=O)NCc3ccccc3)O2)O1)C(=O)NCC(c1ccccc1)c1ccccc1 (some centres undefined)
## Output 0.688
